The measured values listed here are drawn from PubChem BioAssay AID1159580.

Assay: chemical genetic growth profiling, strain panel (AID 1159580);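 note: tested at 20 µM; growth read once vehicle control cultures reached saturation at 30 °C; 1 = growth at the plate median or of vehicle wells; lower values mean less growth of the strain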
Conditions: S. cerevisiae deletion strains, growth OD, locus YLR370C, strain arc18, stronger effect = lower value
The whole screen tested about 5,500 compounds, of which about 2,000 (36%) were called active. Not shown: some 18% with an inconclusive outcome. The list shows a part of the results.
Known normalized growth of a selection of molecules
Answer using only a numeral; do not append any unit.

Reported normalized growth of CO[C@H]1/C=C/O[C@@]2(C)Oc3c(C)c(O)c4c(O)c(c5c(nc6cc(C)ccn65)c4c3C2=O)NC(=O)/C(C)=C\C=C\[C@H](C)[C@H](O)[C@@H](C)C(O)[C@@H](C)[C@H](OC(C)=O)[C@@H]1C (stereo not given in full) : 1.04

The reported value for CCCC1O[C@@H]2CC3C4CCC5=CC(=O)C=CC5(C)C4[C@@H](O)CC3(C)[C@]2(C(=O)CO)O1 (stereo not given in full) in terms of normalized growth is 1.01

The reported value for NC[C@H](O)c1ccc(O)c(O)c1 in terms of normalized growth is 1.01

Form: molecule = C[C@H]1[C@H]2CCC3C4CC=C5C[C@@H](N(C)C)CC[C@]5(C)C4CC[C@@]32CN1C (stereo not given in full) ; normalized growth = 0.992

Reported normalized growth of CC(C)=CCC[C@](C)(O)C1CC=C(C)CC1 (stereo not given in full) : 0.96

// N[C@@H](Cc1ccc(O)c(O)c1)C(=O)O : normalized growth value = 1

normalized growth reported for this molecule Cc1c(O)c(O)cc2c1CC=C1[C@@]2(C)CC[C@@]2(C)C3C[C@](C)(C(=O)O)CC[C@]3(C)CC[C@]12C (stereo not given in full) : 0.63

The value of normalized growth measured for the molecule COC(=O)C[C@H]1C(C)(C)C(=O)[C@@H]2CC3=C4CC(=O)O[C@@H](c5ccoc5)[C@]4(C)CCC3[C@@]1(C)C2=O (stereo not given in full) turned out to be 0.988

// normalized growth value for Oc1c(I)cc(I)c2cccnc12 : 0.0851

====

Experiment: chemical genetic growth profiling, strain panel (AID 1159580);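 note: tested at 20 µM; growth read once vehicle control cultures reached saturation at 30 °C; 1 = growth at the plate median or of vehicle wells; lower values mean less growth of the strain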
Details: S. cerevisiae deletion strains, growth OD, locus YER123W, strain YCK3
The whole screen tested about 5,500 compounds, of which about 2,000 (36%) were called active. Roughly 18% stayed inconclusive and do not appear here. Cut-off read from the data, not from the text of the source: active = normalized growth mostly below about 0.91 (no sharp cut-off); inconclusive = no clear call, values can overlap the other calls; inactive = mostly above about 0.92. The list shows a part of the results.
Outcomes you can answer with include only these: 1 (yes) (active), 0 (no) (inactive)

- compound: "CCOc1ccc(/C=C(\\C)[N+](=O)[O-])cc1OC"
  class: "1 (yes)"
- compound: "CC(=O)Nc1ccc([N+](=O)[O-])cc1[N+](=O)[O-]"
  class: "1 (yes)"
- compound: "CC(C)c1ccc(N2C=Nc3ccc(C(C)C)cc3C2)cc1"
  class: "0 (no)"
- compound: "Cc1nn(Cc2ccc(C(=O)Sc3ccc(C(F)(F)F)cn3)o2)c(C)c1Br"
  class: "0 (no)"
- compound: "CCOC(=O)C1=C(N)OC2=C(C(=O)CC(C)(C)C2)C1c1ccc(Cl)cc1Cl (stereo not drawn)"
  class: "0 (no)"
- compound: "N#CC(C#N)=C/C=C(/Sc1ccc(F)c(Cl)c1)c1ccc(Cl)cc1"
  class: "0 (no)"

What call does the record list for Cc1cc(Br)ccc1-n1c(Sc2c([N+](=O)[O-])cc(C(F)(F)F)cc2[N+](=O)[O-])nc2ccccc2c1=O ? 0 (no)

# fetch the recorded call for Fc1cccc(F)c1NC(=S)Nc1cc(C(F)(F)F)cc(C(F)(F)F)c1 here 0 (no)
